Data credit: ChEMBL document CHEMBL3763103

compounds and their reported CC50 at 18 h
# assay-details: Cytotoxicity against HEK293T cells assessed as reduction in cell viability after 18 hrs by CellTiter-Glo luminescence assay
# Format: cell-based, HEK-293T
# condition-parameters: human, read-out: LD50

# compound, CC50 at 18 h
measured = [
    ("COC(=O)CC[C@@H](C)[C@H]1CC[C@H]2[C@@H]3CC[C@@H]4C[C@H](O)CC[C@]4(C)[C@H]3CC[C@]12C", "50.4 µM"),
    ("C[C@H](CCC(=O)O[C@@H]1O[C@H](C(=O)O)[C@@H](O)[C@H](O)[C@H]1O)[C@H]1CC[C@H]2[C@@H]3CC[C@@H]4C[C@H](O)CC[C@]4(C)[C@H]3CC[C@]12C", "> 150 µM"),
    ("C[C@H](CCC(=O)O)[C@H]1CC[C@H]2[C@@H]3CC[C@@H]4C[C@H](OS(=O)(=O)O)CC[C@]4(C)[C@H]3CC[C@]12C", "> 150 µM"),
    ("C[C@H](CCC(=O)NCC(=O)O)[C@H]1CC[C@H]2[C@@H]3CC[C@@H]4C[C@H](O)CC[C@]4(C)[C@H]3CC[C@]12C [LITHOGLYCOCHOLATE]", "> 150 µM"),
    ("C[C@H](CCC(=O)O)[C@H]1CC[C@H]2[C@@H]3CC[C@@H]4C[C@H](O[C@@H]5O[C@H](C(=O)O)[C@@H](O)[C@H](O)[C@H]5O)CC[C@]4(C)[C@H]3CC[C@]12C", "> 150 µM"),
]
